Assay: logP determination by HPLC on a reversed-phase column (C18)
Assay type: physicochemical
Conditions: HPLC-MS, reversed-phase column (C18); Table I-T3
Quick rule: log P of at least 4 means true, below that means false.

CN(C(=O)c1cc(-c2cnn(-c3c(I)cc(C(F)(C(F)(F)F)C(F)(F)F)cc3C(F)(F)F)c2)ccc1Cl)C1CC1 [I-T3-229]: true
O=C(NC1CC1)c1cc(-c2cnn(-c3c(Cl)cc(C(F)(C(F)(F)F)C(F)(F)F)cc3Cl)c2)cnc1NC1CC1 [I-T3-137]: false

Quick check: does Cc1cc(C(F)(C(F)(F)F)C(F)(F)F)cc(C)c1-n1cc(-c2cnc(C)c(C(=O)N(C)C3(C#N)CC3)c2)cn1 [I-T3-115] have log P greater than or equal to 4? false

N#CC1(NC(=O)c2cc(-c3cnn(-c4c(Cl)cc(C(O)(C(F)(F)F)C(F)(F)F)cc4Cl)c3)cnc2Cl)CC1 [I-T3-222] , same question. false

Cc1cc(C(F)(C(F)(F)F)C(F)(F)F)cc(C)c1-n1cc(-c2cnc(C3CC3)c(C(=O)NC3CC3)c2)cn1 [I-T3-140] , same question. true

Cc1ncc(-c2cnn(-c3c(Cl)cc(C(F)(C(F)(F)F)C(F)(F)F)cc3Cl)c2)cc1C(=O)NC1CC1 [I-T3-91] , same question. false
